Target: CYP2C19 (Homo sapiens (Human), UniProt P33261)
Sequence (P33261 whole entry): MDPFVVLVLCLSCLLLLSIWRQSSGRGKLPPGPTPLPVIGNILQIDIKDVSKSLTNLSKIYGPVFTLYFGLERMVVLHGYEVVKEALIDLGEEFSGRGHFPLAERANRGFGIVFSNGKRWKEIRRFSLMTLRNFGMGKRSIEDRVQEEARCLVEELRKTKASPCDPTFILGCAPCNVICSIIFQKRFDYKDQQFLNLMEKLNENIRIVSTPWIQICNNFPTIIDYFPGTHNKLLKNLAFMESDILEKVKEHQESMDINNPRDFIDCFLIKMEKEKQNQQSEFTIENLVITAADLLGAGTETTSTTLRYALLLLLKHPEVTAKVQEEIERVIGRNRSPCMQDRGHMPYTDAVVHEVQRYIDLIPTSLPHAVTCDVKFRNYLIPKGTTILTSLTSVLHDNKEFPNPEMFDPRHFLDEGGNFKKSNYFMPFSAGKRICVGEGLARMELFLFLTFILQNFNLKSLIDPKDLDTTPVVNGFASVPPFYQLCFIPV
Test: CYP inhibition in human liver microsomes
Conditions: read-out: CYP-2C19; human liver microsomes; probe substrate mephenytoin
pIC50: −log10 of the molar value.
endpointLabel: pIC50

As a guide, the following entries are already answered.
compound | testedSystem | endpointLabel | testResult
O=C(Nc1cnn(Cc2ccc(C(F)(F)F)cc2C(F)(F)F)c1)c1cc(-c2ncccn2)on1 [Compound 129] | CYP2C19 (Homo sapiens (Human), UniProt P33261) | pIC50 | < 4.30
Cc1c(NC(=O)c2cc(-c3ccco3)on2)cnn1Cc1ccc(C(F)(F)F)cc1C(F)(F)F [Compound 93] | CYP2C19 (Homo sapiens (Human), UniProt P33261) | pIC50 | < 4.30
CC(c1ccc(C(F)(F)F)cc1C(F)(F)F)n1cc(NC(=O)c2nnc(-c3cnccn3)s2)cn1 (stereo not drawn) [Compound 136] | CYP2C19 (Homo sapiens (Human), UniProt P33261) | pIC50 | < 4.30
C[C@H](c1ccc(C(F)(F)F)cc1C(F)(F)F)n1cc(NC(=O)c2nnc(-c3cnccn3)s2)cn1 [Compound 152] | CYP2C19 (Homo sapiens (Human), UniProt P33261) | pIC50 | < 4.30
C[C@H](c1ccc(C(F)(F)F)cc1C(F)(F)F)n1cc(NC(=O)c2nnc(-c3ccccn3)s2)cn1 [Compound 123] | CYP2C19 (Homo sapiens (Human), UniProt P33261) | pIC50 | < 4.30

Any idea what pIC50 was measured for O=C(Nc1cnn(Cc2ccc(C(F)(F)F)cc2C(F)(F)F)c1)c1cc(-c2cnccn2)on1 [Compound 114] ? < 4.30

----------
Experiment: In vitro microsomal stability, human liver microsomes
Assay type: in vitro ADME
Details: remaining fraction after 30 min; 1 μM compound, 0.5 mg/mL human liver microsomes, 1 mM NADPH
Rem. @ hLM (%): recorded values
Express your answer in %, writing the number without its unit.

Below are worked cases with known answers.
compound | unit | Rem. @ hLM (%)
CC(c1ccc(C(F)(F)F)cc1C(F)(F)F)n1cc(NC(=O)c2nnc(-c3cnccn3)s2)cn1 (stereo not drawn) [Compound 136] | % | 77.8
C[C@H](c1ccc(C(F)(F)F)cc1C(F)(F)F)n1cc(NC(=O)c2cc(-c3ccccn3)no2)cn1 [Compound 76] | % | 69.7

Consider now this further compound.
Entry CC(c1ccc(C(F)(F)F)cc1C(F)(F)F)n1cc(NC(=O)c2cc(-c3ccco3)on2)cn1 (stereo not drawn) [Compound 12] : reported Rem. @ hLM (%) = ? 46.1
